Task for the reader: assign each of the following compounds its reported EC50.
- test_name: Inhibition of telomerase (unknown origin) incubated for 60 mins at 30 degC followed by 5 mins at 95 degC by TRAP assay
- Parameters: species or system Homo sapiens
// units = µM; emit number, no label

Data request: Query: EC50; subject: `CN(C)CCCN1C(=O)c2ccc3c4c(ccc(c24)C1=O)C(=O)N(CCCN(C)C)C3=O`
Data returned: 6

Data request: Try `O=C1NCCCN2CCN(CCCN3C(=O)c4ccc5c6c(ccc(c46)C3=O)C(=O)N(CCCN3CCN(CCCNC(=O)c4ccc1cc4)CC3)C5=O)CC2` next.
Data returned: 0.35
